experiment: Selectivity index, ratio of IC50 for cytotoxicity against human HEK293 cells assessed as reduction in cell viability to IC50 for antitrypanosomal activity against Trypanosoma brucei brucei Lister 427 blood stream form; format: toxicity, cell-based; conditions: read-out: Ratio IC50
Here the recorded selectivity ratio is given for each entry.
Respond numerically, and do not add a unit to the figure.

Here are 2 compounds together with their reported answers.
O=C(NCCc1csc(-c2ccc(Cl)cc2)n1)N1CCCCC1 :: 55
CC(C)OC(=O)NCCc1csc(-c2ccccc2)n1 :: 385

Okay, next one:
Query `N#Cc1ccc(-c2nc(CCNC(=O)N3CCCCC3)cs2)cc1` yields selectivity ratio of 125

---

test: Tmax in Balb/c mouse at 50 mg/kg, po administered via gavage in presence of 1-aminobenzotriazole; assay type: ADME, organism-based; conditions: in vivo
assay-endpoint: Tmax
Mention the unit after the number when you answer.

Query `O=C(NCCc1csc(-c2ccc(F)cc2F)n1)N1CCCCC1` yields Tmax of 30 min

---

test system: Trypanosoma brucei brucei; test: Antitrypanosomal activity against Trypanosoma brucei brucei Lister 427 strain blood stream forms incubated for 48 hrs by resazurin dye based fluorescence assay; assay type: functional, organism-based; settings: Lister 427, 48 h
assay-endpoint: IC50 (nM)
Note: unit nM is implicit; provide only the numeric part.

O=C(NCCc1csc(-c2ccc(F)cc2)n1)N1CCCCC1 :: 24
COc1ccccc1C(=O)NCCc1csc(-c2ccccc2)n1 :: 10600
O=C(NCCc1csc(-c2cccc(Cl)c2)n1)N1CCCCC1 :: 160
O=C(NCCc1csc(-c2ccccc2)n1)OCC1CC1 :: 970
N#Cc1ccc(-c2nc(CCNC(=O)N3CCCCC3)cs2)cc1 :: 330
N#Cc1ccccc1-c1nc(CCNC(=O)N2CCCCC2)cs1 :: 560
O=C(NCCc1csc(-c2ccccc2)n1)OC1CCCC1 :: 300
O=C(NCCc1csc(-c2ccncc2)n1)C1CCCC1 :: 9100

Query `Cc1ccoc1C(=O)NCCc1csc(-c2ccccc2)n1` yields IC50 of 130

Query `O=C(NCCc1csc(-c2ccccc2)n1)c1ccon1` yields IC50 of 740

Query `COc1cccc(-c2nc(CCNC(=O)N3CCCCC3)cs2)c1` yields IC50 of 670

Query `Cc1ccc(-c2nc(CCNC(=O)N3CCCCC3)cs2)cc1` yields IC50 of 3700

Query `O=C(NCCc1csc(-c2cccnc2)n1)C1CCCC1` yields IC50 of 6600

Query `CC(C)N(C(=O)NCCc1csc(-c2ccccc2)n1)C(C)C` yields IC50 of 9600

Query `Cc1ccccc1-c1nc(CCNC(=O)N2CCCCC2)cs1` yields IC50 of 190

Query `C#Cc1cccc(C(=O)NCCc2csc(-c3ccccc3)n2)c1` yields IC50 of 760

Query `O=C(NCCc1csc(-c2ccccc2)n1)c1cccc(C(F)(F)F)c1` yields IC50 of 11600

Query `O=C(NCCc1csc(-c2ccc(Cl)cc2)n1)N1CCCCC1` yields IC50 of 1500

Query `O=C(NCCc1csc(-c2ccccc2)n1)c1ccccc1O` yields IC50 of 2300

Query `O=C(NCCc1csc(-c2ccc(F)cc2F)n1)N1CCCCC1` yields IC50 of 24

Query `O=C(NCCc1csc(-c2ccccc2F)n1)N1CCCCC1` yields IC50 of 16

Query `Cc1ccc(C(=O)NCCc2csc(-c3ccccc3)n2)o1` yields IC50 of 1900
